Hey, just so you know, these numbers are from the kinase profiling compilation of Christmann-Franck et al. (2016).

Below, each entry is listed alongside its reported residual activity.
- target-under-test: PAK3 (human) (UniProt O75914)
- Sequence (O75914 whole entry, looked up): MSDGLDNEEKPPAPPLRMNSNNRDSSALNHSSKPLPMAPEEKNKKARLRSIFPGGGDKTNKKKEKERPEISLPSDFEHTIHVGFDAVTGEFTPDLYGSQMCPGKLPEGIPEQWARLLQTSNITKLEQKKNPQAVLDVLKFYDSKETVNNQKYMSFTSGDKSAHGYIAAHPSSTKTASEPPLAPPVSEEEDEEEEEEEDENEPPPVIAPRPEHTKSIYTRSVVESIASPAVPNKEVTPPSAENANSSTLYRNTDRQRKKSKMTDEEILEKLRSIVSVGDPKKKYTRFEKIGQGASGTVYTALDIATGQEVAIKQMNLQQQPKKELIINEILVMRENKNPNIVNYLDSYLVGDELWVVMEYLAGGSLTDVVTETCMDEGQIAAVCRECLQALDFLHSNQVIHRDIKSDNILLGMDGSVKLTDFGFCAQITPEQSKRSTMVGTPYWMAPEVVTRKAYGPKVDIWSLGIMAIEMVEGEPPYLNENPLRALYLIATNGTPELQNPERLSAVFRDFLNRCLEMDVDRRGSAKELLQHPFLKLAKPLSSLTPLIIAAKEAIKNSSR
- assay-text: radiometric filter-binding kinase assay, Kinase HotSpot
- assay-conditions: compound 0.5 µM; ATP 10 µM
Write down the value, and be sure its unit follows.

Reference set (3 entries):
• Nc1ncnc2c1cnn2-c1ccccc1 = 98.8%
• N#Cc1c(NC(=O)c2cccc3ccccc23)sc2c1CCCC2 = 105%
• COc1cc2ncnc(Nc3ccc(O)c(Br)c3)c2cc1OC = 94.2%

Summary line: `Cn1cc(/C=C2\C(=O)Nc3ccc(S(N)(=O)=O)cc32)c2ccccc21` , PAK3 (human) (UniProt O75914), reported residual activity = 93.8%

* * *

Below, each entry is listed alongside its reported residual activity.
- target-under-test: INSR (human)
- assay-text: radiometric filter-binding kinase assay, Kinase HotSpot
- assay-conditions: compound 0.5 µM; ATP 10 µM
Just the number please, in %, no unit attached.

Summary line: `CCCCc1c(-c2ccc(O)cc2)[nH]c2nccnc12` , INSR (human), reported residual activity = 99.6

* * *

- target-under-test: UniProtKB P30530
- Sequence (P30530 whole entry, looked up): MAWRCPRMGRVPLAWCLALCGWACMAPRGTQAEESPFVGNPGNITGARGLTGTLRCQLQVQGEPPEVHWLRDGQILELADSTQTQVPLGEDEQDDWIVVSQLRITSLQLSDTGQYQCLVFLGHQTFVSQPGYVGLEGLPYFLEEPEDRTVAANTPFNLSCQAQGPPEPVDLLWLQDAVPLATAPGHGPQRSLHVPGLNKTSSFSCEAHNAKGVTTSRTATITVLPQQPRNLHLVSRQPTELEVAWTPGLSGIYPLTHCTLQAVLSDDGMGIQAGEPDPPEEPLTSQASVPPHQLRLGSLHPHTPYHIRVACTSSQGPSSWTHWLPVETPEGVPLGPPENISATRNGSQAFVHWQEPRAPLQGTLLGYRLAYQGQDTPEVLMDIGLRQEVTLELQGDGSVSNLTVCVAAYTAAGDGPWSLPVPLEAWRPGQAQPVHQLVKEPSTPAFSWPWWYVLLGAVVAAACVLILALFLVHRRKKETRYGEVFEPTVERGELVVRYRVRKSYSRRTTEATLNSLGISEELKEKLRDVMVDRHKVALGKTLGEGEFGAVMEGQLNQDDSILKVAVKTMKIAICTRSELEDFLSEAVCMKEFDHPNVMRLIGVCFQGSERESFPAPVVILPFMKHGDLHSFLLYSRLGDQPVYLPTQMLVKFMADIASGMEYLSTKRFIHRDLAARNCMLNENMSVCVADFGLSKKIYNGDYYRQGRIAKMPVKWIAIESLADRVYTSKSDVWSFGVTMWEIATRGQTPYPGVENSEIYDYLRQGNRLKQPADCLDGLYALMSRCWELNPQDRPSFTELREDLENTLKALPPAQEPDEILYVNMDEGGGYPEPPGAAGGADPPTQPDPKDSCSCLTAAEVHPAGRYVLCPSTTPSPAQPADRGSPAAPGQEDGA
- assay-text: radiometric filter-binding kinase assay, Kinase HotSpot
- assay-conditions: compound 0.5 µM; ATP 10 µM
Below, each entry is listed alongside its reported residual activity.
Just the number please, in %, no unit attached.

* COc1cc2c(Nc3ccc(Br)cc3F)ncnc2cc1OCC1CCN(C)CC1 | 55
* N/C(=N\N=C/c1ccc(-c2cccc([N+](=O)[O-])c2)o1)N[N+](=O)[O-] | 100

For this compound ( `Cc1cc(Nc2nc(-c3ccccc3)nc3ccccc23)n[nH]1` ), measured residual activity is 101

For this compound ( `Cn1cc(/C=C2\C(=O)Nc3ccc(S(N)(=O)=O)cc32)c2ccccc21` ), measured residual activity is 49.2

For this compound ( `O=c1[nH]c2ccccc2n1C1CCN(Cc2ccc(-c3nc4cc5[nH]cnc5cc4nc3-c3ccccc3)cc2)CC1` ), measured residual activity is 105

* * *

- target-under-test: SRMS (human)
- assay-text: radiometric filter-binding kinase assay, Kinase HotSpot
- assay-conditions: compound 0.5 µM; ATP 10 µM
recorded-metric: residual activity (%)
Just the number please, in %, no unit attached.

For this compound ( `N#C/C(=C1/Nc2ccccc2S1)c1ccnc(NCCc2cccnc2)n1` ), measured residual activity is 106

For this compound ( `COc1cccc(-c2cc(=O)c3ccccc3o2)c1N` ), measured residual activity is 104

For this compound ( `Nc1ncnc2c1cnn2-c1ccccc1` ), measured residual activity is 104

For this compound ( `Cn1cc(/C=C2\C(=O)Nc3ccc(S(N)(=O)=O)cc32)c2ccccc21` ), measured residual activity is 99.8

For this compound ( `O=C(O)c1ccc2c3c1cccc3c(=O)n1c3ccccc3nc21` ), measured residual activity is 106

For this compound ( `COc1cc2c(N3CCN(C(=O)Nc4ccc(OC(C)C)cc4)CC3)ncnc2cc1OCCCN1CCCCC1` ), measured residual activity is 95.8

* * *

Below, each entry is listed alongside its reported residual activity.
- target-under-test: ABL1 (human)
- assay-text: radiometric filter-binding kinase assay, Kinase HotSpot
- assay-conditions: compound 0.5 µM; ATP 10 µM
Just the number please, in %, no unit attached.

* Nc1ncnc2c1cnn2-c1ccccc1 | 99.4
* CCc1nc(-c2ccc(OC)cc2)[nH]c1-c1ccncc1 | 101
* COc1cc2c(N3CCN(C(=O)Nc4ccc(OC(C)C)cc4)CC3)ncnc2cc1OCCCN1CCCCC1 | 104

For this molecule ( `Cn1cc(/C=C2\C(=O)Nc3ccc(S(N)(=O)=O)cc32)c2ccccc21` ), measured residual activity is 52.5

For this molecule ( `O=c1[nH]c2ccccc2n1C1CCN(Cc2ccc(-c3nc4cc5[nH]cnc5cc4nc3-c3ccccc3)cc2)CC1` ), measured residual activity is 98.2

For this molecule ( `O=c1cc(N2CCOCC2)oc2c(-c3ccccc3)cccc12` ), measured residual activity is 99.2

For this molecule ( `N#Cc1c(NC(=O)c2cccc3ccccc23)sc2c1CCCC2` ), measured residual activity is 103

For this molecule ( `COc1cc2ncnc(Nc3ccc(O)c(Br)c3)c2cc1OC` ), measured residual activity is 79.4

For this molecule ( `O=C(O)c1ccc2c3c1cccc3c(=O)n1c3ccccc3nc21` ), measured residual activity is 99.3

For this molecule ( `O=S(=O)(NCCNC/C=C/c1ccc(Br)cc1)c1cccc2cnccc12` ), measured residual activity is 101

For this molecule ( `O=C1NC(=O)c2cc(Nc3ccc(F)cc3)c(Nc3ccc(F)cc3)cc21` ), measured residual activity is 95.7

For this molecule ( `O=c1c2ccccc2[nH]c(=S)n1CCN1CCC(=C(c2ccc(F)cc2)c2ccc(F)cc2)CC1` ), measured residual activity is 106

For this molecule ( `N#CCCc1ccc2c(c1)-c1[nH]c3ccc([N+](=O)[O-])cc3c1CC(=O)N2` ), measured residual activity is 47.8

For this molecule ( `O=c1c(-c2ccc(F)cc2)c(-c2ccncc2)[nH]n1-c1ccc(Cl)cc1` ), measured residual activity is 98.1

For this molecule ( `O=C(c1ccccc1)c1ccc(N2CCOCC2)cc1O` ), measured residual activity is 102

For this molecule ( `CCCCc1c(-c2ccc(O)cc2)[nH]c2nccnc12` ), measured residual activity is 79

For this molecule ( `COc1cccc(-c2cc(=O)c3ccccc3o2)c1N` ), measured residual activity is 93.9

For this molecule ( `CCOc1cc2ncnc(Nc3cccc(Br)c3)c2cc1OCC` ), measured residual activity is 64.3

* * *

Below, each entry is listed alongside its reported residual activity.
- target-under-test: UniProtKB Q9HC98
- Sequence (Q9HC98 whole entry, looked up): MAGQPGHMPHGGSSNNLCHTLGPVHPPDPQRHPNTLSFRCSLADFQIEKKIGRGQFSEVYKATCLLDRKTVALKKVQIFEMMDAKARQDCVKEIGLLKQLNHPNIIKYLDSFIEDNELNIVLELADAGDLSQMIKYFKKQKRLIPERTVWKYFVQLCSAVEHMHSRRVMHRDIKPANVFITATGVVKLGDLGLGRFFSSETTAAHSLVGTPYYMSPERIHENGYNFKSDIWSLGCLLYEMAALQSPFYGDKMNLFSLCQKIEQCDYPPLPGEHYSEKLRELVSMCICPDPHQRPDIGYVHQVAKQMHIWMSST
- assay-text: radiometric filter-binding kinase assay, Kinase HotSpot
- assay-conditions: compound 0.5 µM; ATP 10 µM
Just the number please, in %, no unit attached.

Reference set (8 entries):
• O=C1NC(=O)c2cc(Nc3ccc(F)cc3)c(Nc3ccc(F)cc3)cc21 = 109
• CCCCc1c(-c2ccc(O)cc2)[nH]c2nccnc12 = 123
• COc1cc2ncnc(Nc3ccc(O)c(Br)c3)c2cc1OC = 100
• CCc1nc(-c2ccc(OC)cc2)[nH]c1-c1ccncc1 = 95.3
• N#CCCc1ccc2c(c1)-c1[nH]c3ccc([N+](=O)[O-])cc3c1CC(=O)N2 = 101
• O=C1NC(=O)c2c1c1c3ccccc3[nH]c1c1[nH]c3cc(Br)ccc3c21 = 104
• Cn1cc(/C=C2\C(=O)Nc3ccc(S(N)(=O)=O)cc32)c2ccccc21 = 98.6
• O=C(O)c1ccc2c3c1cccc3c(=O)n1c3ccccc3nc21 = 115

For this molecule ( `COc1cc2c(N3CCN(C(=O)Nc4ccc(OC(C)C)cc4)CC3)ncnc2cc1OCCCN1CCCCC1` ), measured residual activity is 87.4

For this molecule ( `O=c1c2ccccc2[nH]c(=S)n1CCN1CCC(=C(c2ccc(F)cc2)c2ccc(F)cc2)CC1` ), measured residual activity is 96.2

For this molecule ( `O=C(c1ccccc1)c1ccc(N2CCOCC2)cc1O` ), measured residual activity is 95

For this molecule ( `FC(F)(F)c1ccc(/C=C/c2nc(COc3ccc(CCCCn4ccnn4)cc3)co2)cc1` ), measured residual activity is 92.6

For this molecule ( `O=c1cc(N2CCOCC2)oc2c(-c3ccccc3)cccc12` ), measured residual activity is 112

For this molecule ( `Nc1ncnc2c1cnn2-c1ccccc1` ), measured residual activity is 114

For this molecule ( `N#Cc1c(NC(=O)c2cccc3ccccc23)sc2c1CCCC2` ), measured residual activity is 101

For this molecule ( `COc1cc2c(Nc3ccc(Br)cc3F)ncnc2cc1OCC1CCN(C)CC1` ), measured residual activity is 96.9

For this molecule ( `COc1cc2c(cc1OC)-c1[nH]nc(Nc3cccc(F)c3)c1C2` ), measured residual activity is 105

For this molecule ( `N#C/C(=C1/Nc2ccccc2S1)c1ccnc(NCCc2cccnc2)n1` ), measured residual activity is 101

For this molecule ( `O=S(=O)(NCCNC/C=C/c1ccc(Br)cc1)c1cccc2cnccc12` ), measured residual activity is 100

For this molecule ( `c1ccc(-c2cnc(Nc3ccc(OCCN4CCCC4)cc3)s2)cc1` ), measured residual activity is 102

For this molecule ( `Cc1cc(Nc2nc(-c3ccccc3)nc3ccccc23)n[nH]1` ), measured residual activity is 93.9

* * *

- target-under-test: CDK4 CCND3 (human) (UniProt P30281+P11802)
- Sequence (P11802 whole entry, looked up): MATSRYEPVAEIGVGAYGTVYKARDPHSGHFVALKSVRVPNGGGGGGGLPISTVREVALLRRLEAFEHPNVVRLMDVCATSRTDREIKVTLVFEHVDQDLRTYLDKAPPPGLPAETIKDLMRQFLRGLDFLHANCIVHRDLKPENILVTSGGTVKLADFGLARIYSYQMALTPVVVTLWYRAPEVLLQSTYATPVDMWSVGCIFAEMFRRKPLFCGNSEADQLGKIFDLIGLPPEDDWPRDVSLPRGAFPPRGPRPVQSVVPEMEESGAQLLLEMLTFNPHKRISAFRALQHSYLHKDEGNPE
- Sequence (P30281 whole entry, looked up): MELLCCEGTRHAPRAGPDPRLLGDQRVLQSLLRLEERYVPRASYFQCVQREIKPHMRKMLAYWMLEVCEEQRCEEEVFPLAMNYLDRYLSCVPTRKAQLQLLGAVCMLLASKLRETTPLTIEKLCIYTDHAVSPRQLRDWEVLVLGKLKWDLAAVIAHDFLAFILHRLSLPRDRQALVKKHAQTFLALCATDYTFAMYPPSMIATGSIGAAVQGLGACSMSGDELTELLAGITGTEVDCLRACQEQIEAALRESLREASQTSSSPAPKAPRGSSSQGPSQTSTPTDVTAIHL
- assay-text: radiometric filter-binding kinase assay, Kinase HotSpot
- assay-conditions: compound 0.5 µM; ATP 10 µM
Below, each entry is listed alongside its reported residual activity.
Just the number please, in %, no unit attached.

Summary line: `O=S(=O)(NCCNC/C=C/c1ccc(Br)cc1)c1cccc2cnccc12` , CDK4 CCND3 (human) (UniProt P30281+P11802), reported residual activity = 106

Summary line: `O=C1NC(=O)c2c1c1c3ccccc3[nH]c1c1[nH]c3cc(Br)ccc3c21` , CDK4 CCND3 (human) (UniProt P30281+P11802), reported residual activity = 21.1

Summary line: `O=C1NC(=O)c2cc(Nc3ccc(F)cc3)c(Nc3ccc(F)cc3)cc21` , CDK4 CCND3 (human) (UniProt P30281+P11802), reported residual activity = 99

Summary line: `CC(C)(C)n1nc(Cc2cccc3ccccc23)c2c(N)ncnc21` , CDK4 CCND3 (human) (UniProt P30281+P11802), reported residual activity = 95.8
